Values from patent US12371428B2

target: Human KDR (residues 790-1356) (Homo sapiens (Human), UniProt P35968); assay: Human KDR kinase assay, HTRF KinEase (Example B-2); assay type: biochemical; conditions: protocol of Example B-2 (other compounds)
Sequence (P35968 790-1356): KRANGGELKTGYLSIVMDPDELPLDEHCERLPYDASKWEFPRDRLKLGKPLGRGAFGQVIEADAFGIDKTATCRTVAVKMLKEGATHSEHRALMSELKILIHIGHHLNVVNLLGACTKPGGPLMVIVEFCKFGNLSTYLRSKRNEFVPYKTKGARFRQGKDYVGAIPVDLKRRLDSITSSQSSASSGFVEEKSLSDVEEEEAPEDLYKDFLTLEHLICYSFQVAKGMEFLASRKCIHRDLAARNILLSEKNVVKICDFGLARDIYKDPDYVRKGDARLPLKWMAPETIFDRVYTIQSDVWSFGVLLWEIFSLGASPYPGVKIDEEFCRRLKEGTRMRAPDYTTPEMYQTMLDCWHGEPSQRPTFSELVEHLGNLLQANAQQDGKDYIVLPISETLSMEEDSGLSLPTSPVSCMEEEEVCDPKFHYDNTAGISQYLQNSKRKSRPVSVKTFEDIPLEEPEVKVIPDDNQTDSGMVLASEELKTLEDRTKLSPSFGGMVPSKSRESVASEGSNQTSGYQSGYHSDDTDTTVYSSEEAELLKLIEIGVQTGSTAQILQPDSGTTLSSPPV
Where a name gives a salt, the structure may show the parent alone.
# maps each entry to its IC50

{"Compound": "COc1cnc2c(Oc3ccc(NC(=O)c4cn(C)cc(-c5ccccc5)c4=O)cc3F)ccnc2c1 [Compound 40, hydrochloride]", "Experimental system": "Human KDR (residues 790-1356) (Homo sapiens (Human), UniProt P35968)", "IC50": "> 300 nM"}
{"Compound": "COc1ccc2nccc(Oc3ccc(NC(=O)c4ccc(C)n(-c5ccc(F)cc5)c4=O)cc3F)c2n1", "Experimental system": "Human KDR (residues 790-1356) (Homo sapiens (Human), UniProt P35968)", "IC50": "100 to 300 nM"}
{"Compound": "Cc1ncc(C(=O)Nc2ccc(Oc3ccnc4cc(Br)cnc34)cc2)c(O)c1-c1ccc(F)cc1", "Experimental system": "Human KDR (residues 790-1356) (Homo sapiens (Human), UniProt P35968)", "IC50": "100 to 300 nM"}
{"Compound": "COc1cc2nccc(Oc3ncc(NC(=O)c4cn(-c5cnn(C)c5)cc(-c5ccc(F)cc5)c4=O)cc3F)c2cc1OC", "Experimental system": "Human KDR (residues 790-1356) (Homo sapiens (Human), UniProt P35968)", "IC50": "> 300 nM"}
{"Compound": "Cc1cc(F)ccc1-c1c(C)nc(C)c(C(=O)Nc2ccc(Oc3ccnc4cc(C)c(F)nc34)c(F)c2)c1O", "Experimental system": "Human KDR (residues 790-1356) (Homo sapiens (Human), UniProt P35968)", "IC50": "100 to 300 nM"}
{"Compound": "COc1cnc2c(Oc3ccc(NC(=O)c4c(C)nc(C)c(-c5ccc(F)cc5)c4O)cc3F)ccnc2c1", "Experimental system": "Human KDR (residues 790-1356) (Homo sapiens (Human), UniProt P35968)", "IC50": "< 100 nM"}
{"Compound": "COc1cc2nccc(Oc3ccc(NC(=O)c4cn(C)cc(-c5ccc(Cl)cc5)c4=O)cc3F)c2nc1OC [Compound 38, hydrochloride]", "Experimental system": "Human KDR (residues 790-1356) (Homo sapiens (Human), UniProt P35968)", "IC50": "100 to 300 nM"}
{"Compound": "COc1cc2nccc(Oc3ccc(NC(=O)c4c(C)cc(C)n(-c5ccc(F)cc5)c4=O)cc3F)c2nc1OC", "Experimental system": "Human KDR (residues 790-1356) (Homo sapiens (Human), UniProt P35968)", "IC50": "< 100 nM"}
{"Compound": "COc1cc2nccc(Oc3ccc(NC(=O)c4cn(C)c(CO)c(-c5ccc(F)cc5)c4=O)cc3F)c2nc1OC", "Experimental system": "Human KDR (residues 790-1356) (Homo sapiens (Human), UniProt P35968)", "IC50": "100 to 300 nM"}
{"Compound": "COc1cc2nccc(Oc3ccc(NC(=O)c4c(C)ccn(-c5ccc(F)cc5)c4=O)cc3F)c2nc1OC", "Experimental system": "Human KDR (residues 790-1356) (Homo sapiens (Human), UniProt P35968)", "IC50": "< 100 nM"}
{"Compound": "Cc1ncc(C(=O)Nc2ccc(Oc3ccnc4cc(-c5cnn(C(F)F)c5)ccc34)cc2)c(O)c1-c1ccc(F)cc1", "Experimental system": "Human KDR (residues 790-1356) (Homo sapiens (Human), UniProt P35968)", "IC50": "< 100 nM"}
{"Compound": "COc1ccc2nccc(Oc3ccc(NC(=O)c4c(C)ncn(-c5ccc(F)cc5)c4=O)cc3F)c2n1", "Experimental system": "Human KDR (residues 790-1356) (Homo sapiens (Human), UniProt P35968)", "IC50": "> 300 nM"}
{"Compound": "CNC(=O)c1cc2c(Oc3ccc(NC(=O)c4c5n(cc(-c6ccc(F)cc6)c4=O)CCC5)cc3F)ccnc2cc1OC", "Experimental system": "Human KDR (residues 790-1356) (Homo sapiens (Human), UniProt P35968)", "IC50": "< 100 nM"}
{"Compound": "COc1cc2nccc(Oc3ccc(NC(=O)c4cn(C5CC5)c(C)c(-c5ccc(F)cc5)c4=O)cc3F)c2nc1OC", "Experimental system": "Human KDR (residues 790-1356) (Homo sapiens (Human), UniProt P35968)", "IC50": "> 300 nM"}
